# assay_overview: growth inhibition, single agent and combos, cell-based, chromothripsis tumors, cisplatin or BGB combos (AID 1671450);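 also: cells exposed to compound for four days; 0% = vehicle DMSO and 100% = cell killing by high DMSO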
# condition_label: HDN33 neuroblastoma cells, single agent, at 5 µM, stronger effect = higher value
Non-standard residues stand in square brackets, D forms with d. Residues, ends and D or L forms follow the SMILES beside them. Dolaproine = CO[C@@H]([C@@H]1CCCN1)[C@@H](C)C(=O)O; Dil = CC[C@H](C)[C@H](NC)[C@@H](CC(=O)O)OC; NMeV = CN[C@H](C(=O)O)C(C)C
assay_metric: inhibition (%)
Give the value in % but do not write % after it.

Problem: Which inhibition is listed for CC(C)C(=O)SCCCCCCC(=O)Nc1nc(-c2ccccc2)cs1 ?
Result: 57.6

Problem: Find the recorded inhibition belonging to C=C1C(=O)O[C@@H]2C=C(C)CCC=C(C)CC[C@@H]12 and report it.
Result: 38.5

Problem: Record request: inhibition value, item C#CCC(CCCCCC)C(=O)O (configuration not stated)
Result: -0.563

Problem: inhibition lookup needed for O=C(CCCCCCC(=O)NO)NO , thanks.
Result: -0.771

Problem: Reported inhibition, molecule CC1OC(n2cc(F)c(=O)[nH]c2=O)C(O)C1O (configuration not stated) : ____
Result: -20.3

Problem: Recorded inhibition of CC(C)(O)[C@H]1CC[C@@](C)(C2[C@@H](O)C[C@@]3(C)[C@@H]4C[C@H](O)C5C(C)(C)[C@@H](O)CCC56CC46CC[C@]23C)O1 (some centres not stated) , please.
Result: -12.8

Problem: Would you mind telling me what inhibition value was observed for CC(C)(C#N)c1ccc(N2C(=O)OCc3cnc4ccc(-c5cnc6ccccc6c5)cc4c32)cc1 ?
Result: 52.2

Problem: Look at this molecule and give its reported inhibition. O=C1C(=Cc2cccnc2)C(=O)c2ccccc21
Result: -16.1

Problem: // returns reported inhibition for input CC[C@H](C)[C@@H]([C@@H](CC(=O)N1CCC[C@H]1[C@H](OC)[C@@H](C)C(=O)N[C@@H](Cc1ccccc1)C(=O)O)OC)N(C)C(=O)[C@@H](NC(=O)[C@@H](NC)C(C)C)C(C)C (H-[NMeV]V[Dil][Dolaproine]F-OH)
Result: 96.5

Problem: State the recorded inhibition for this entry: Cc1cn(C2CC(O)C(COP(=O)(O)OP(=O)(O)OP(=O)(O)O)O2)c(=O)[nH]c1=O (configuration not stated)
Result: 1.73

Problem: Consider the molecule N#Cc1ccc(OC2CCC(NC(=O)CCSc3nc4ccccc4c(=O)[nH]3)CC2)cc1 (configuration not stated) and give its measured inhibition.
Result: 35.9

Problem: Look at this molecule and give its reported inhibition. COc1ccccc1S(=O)(=O)Nc1ccc2c(c1)CN(C)C(=O)N2
Result: 26.1

----------
# assay_overview: viability loss with induced miR-34 in A549 – imaging, A549 dox-inducible miR-34, nuclei and caspase counts, primary screen (AID 1347080)
# condition_label: A549 miR-34 inducible, Hoechst nuclei count, 48 h; measured here: total cells without miR-34 induction
assay_metric: cell count
Please give the numeric answer without any surrounding text.

Problem: Give its cell count value. Item: CCCCC[C@H](O)/C=C/[C@@H]1[C@@H](C/C=C\CCCC(=O)O)[C@@H](O)C[C@H]1O (tested in a mixture with another compound)
Result: 9270

Problem: // lookup cell count for Cc1cc(NC(=O)Cn2ncc3cc(-c4ccc(F)c(F)c4)ccc32)n(C)n1
Result: 5490

Problem: Given the entry CCCn1ncc(-c2ccnc(NCc3cc(CC)no3)n2)c1C , report its measured cell count.
Result: 7960

Problem: I'd like to know its cell count. The compound in question is CCCCC[C@H](O)/C=C/C=C\C=C\C=C\[C@@H](O)[C@@H](O)CCCC(=O)O
Result: 6220

Problem: Which value of cell count has been reported for CC=C1NC(=O)C2CSSCCC=CC(CC(=O)NC(C(C)C)C(=O)N2)OC(=O)C(C(C)C)NC1=O (centres undefined) in the records?
Result: 768

Problem: What cell count value was documented for this compound, O=C(NS(=O)(=O)c1ccc(Br)s1)c1ccc(Cl)cc1Cl ?
Result: 8160

Problem: State the recorded cell count for this entry: Cc1nn(C)cc1-c1ccnc(N2CCCN(c3ccc(F)cc3)CC2)n1
Result: 4290

Problem: For COc1ccc(-n2cccn2)c(-c2nnc3ccccn23)c1 , what is its reported cell count?
Result: 9550

Problem: Which cell count value belongs to CC1=NN(c2ccc(C(=O)O)cc2)C(=O)C1=Cc1ccc(-c2cc(C)c(C)cc2[N+](=O)[O-])o1 ?
Result: 8100
